# TEST TARGET: TTR F87M L110M (monomeric TTR, mTTR), untagged (human, UniProt P02766 21-147)
# ASSAY SUMMARY: sandwich ELISA, antibody coated, untagged mTTR, HRP pan-TTR polyclonal detection
Form field: EC50 (one value per entry).
Answer format: numeric, nM implied, no suffix.

INSERT INTO assay_data (binder, reported_measurement) VALUES
  ('murine anti-human monomer TTR antibody Ab2 (antibody, V domains shown, Murine monoclonal antibody; also called mAb 2; Antibody 2) VH: EVKLEQSGGGLVQPGGSMKLSCVASGFTFSNYWMNWVRQSPEKGLEWVAQIRLKSDNYATHYAESVKGRFTISRDDSKSSVYLQMNNLRAEDTGIYYCTGVFTYWGQGTLVTVSA VL: NIVLTQSPASLAVSLGQRATISCRTSESVDSYGNSFMHWYQQKPGQPPKLLIYLASNLESGVPARFSGSGSRTDFTLTIDPVEADDAATYYCQQNNEDPMYTFGGGTKLEIK', 98.9);

--- query ---
Please fill in: EC50 reported for murine anti-human monomer TTR antibody Ab3 (antibody, V domains shown, Murine monoclonal antibody; entries are called Mouse Ab3 HC / LC but hold only the variable domains; also called mAb 3; Antibody 3) VH: EVQLQQSGPVLVKPGASVKMSCKASGYTFTDYYMNWVKQSHGKSLEWIGVINPYNGGTSYNQKFKGKATLTVDKSSSTAYMELNSLTSEDSAVYYCARDLTGTGGAMDYWGQGTSVTVSS VL: QIVLTQSPAILSASPGEKVTMTCRASSSVSYMHWYQQKPGSSPKPWIYATSNLASGVPARFSGSGSGTSYSLTISRVEAEDAATYYCQQWSSNPLTFGAGTKLELK = 128
